STUDY_SYSTEM: NADPH oxidase 5 (Homo sapiens) (UniProt Q96PH1)
Sequence (Q96PH1 whole entry, looked up): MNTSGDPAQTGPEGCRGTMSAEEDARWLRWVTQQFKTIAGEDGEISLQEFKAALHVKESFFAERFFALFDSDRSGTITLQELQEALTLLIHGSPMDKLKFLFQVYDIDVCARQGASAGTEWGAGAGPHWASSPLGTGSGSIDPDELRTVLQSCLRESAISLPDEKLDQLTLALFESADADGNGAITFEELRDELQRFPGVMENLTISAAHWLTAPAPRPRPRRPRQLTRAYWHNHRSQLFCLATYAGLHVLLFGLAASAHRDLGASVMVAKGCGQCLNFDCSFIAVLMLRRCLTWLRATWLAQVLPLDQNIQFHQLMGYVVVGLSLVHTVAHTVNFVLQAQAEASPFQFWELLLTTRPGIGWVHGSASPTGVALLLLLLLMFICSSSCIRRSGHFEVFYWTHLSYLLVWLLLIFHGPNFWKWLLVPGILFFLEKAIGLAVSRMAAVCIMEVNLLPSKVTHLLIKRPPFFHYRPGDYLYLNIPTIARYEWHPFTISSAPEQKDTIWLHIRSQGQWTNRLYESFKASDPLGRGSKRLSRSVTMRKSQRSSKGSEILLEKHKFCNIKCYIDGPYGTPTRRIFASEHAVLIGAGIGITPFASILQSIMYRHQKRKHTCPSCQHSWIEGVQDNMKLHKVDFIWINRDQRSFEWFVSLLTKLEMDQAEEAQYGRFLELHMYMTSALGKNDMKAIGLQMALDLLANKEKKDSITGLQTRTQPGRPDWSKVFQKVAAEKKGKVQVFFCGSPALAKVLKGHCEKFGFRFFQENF
TEST_NAME: NOX5-dependent H2O2 signal modulators, primary screen, NOX inhibitor project, cell-based, HEK293-NOX5, Amplex Red fluorescence (AID 1161)
RECORDED_CONDITIONS: HEK293-NOX5, ionomycin, 45 min, higher = more signal
MEASURED_QUANTITY: z-score
Form rule: numeric answer, no unit written next to it.

Q: Any idea what its z-score is? The molecule is O=C1C[C@@H](O)[C@@H](O)[C@@H]2[C@@H]3C(=O)N(Cc4ccc5c(c4)OCO5)C(=O)[C@@H]3CC[C@@H]12
Result: -0.246

Q: Field request: z-score | item: Cc1cc2c(nc1C)CCCN2CC(O)CN1CCN(C)CC1 (centres undefined)
Result: -1.08

Q: State the recorded z-score for this entry: CC(=O)OC[C@H]1O[C@@H](ON=C(C)CCN2CCc3nc(-c4ccccc4)c(-c4ccccc4)cc3C2)[C@H](OC(C)=O)[C@@H](OC(C)=O)[C@@H]1OC(C)=O
Result: -3.13

Q: Quick check: z-score of C[C@@H]1CCC2C(=O)N(Cc3ccccc3)C[C@@H](O)CN2[C@H]1c1ccc(Br)cc1 (some centres undefined) ?
Result: -0.836
